Where do the numbers come from? From patent US20240368163A1.

// values below are reported pIC50
# Test system: MYB
# ASSAY_NOTES: Splicing RT-qPCR assay, MYB mRNA canonical junction (CJ) and alternative junction (AJ)
# Type: cell-based, human
# MEASUREMENT_CONTEXT: Homo sapiens, 24 h, decrease in CJ mRNA; A673 or K562 cells, 24 hours treatment, RT-qPCR; read-out: MYB CJ IC50
pIC50: −log10 of the molar value.

# MOLECULE, ASSAYED_TARGET, pIC50
data = [
    ("c1nc2c(-c3cn[nH]c3)ccc(-c3ccc(O[C@@H]4C[C@H]5CC[C@@H](C4)N5)nn3)c2s1", "MYB", "6.00 to 7.00"),
    ("CN(c1ccc(-c2ccc(-c3ccn(C)c(=O)c3)c3scnc23)nn1)C1CC(C)(C)NC(C)(C)C1", "MYB", "5.00 to 6.00"),
    ("CN1CCCC2(CCN2c2ccc(-c3ccc(-c4cn[nH]c4)c4ncsc34)nn2)C1 (stereo not drawn)", "MYB", "< 5.00"),
    ("C[C@@H]1C[C@H](N(C)c2ccc(-c3ccc(-c4cn[nH]c4)c4c3NC(=O)C4)nn2)CCN1", "MYB", "< 5.00"),
    ("Cn1cc(-c2c(F)cc(-c3ccc(OC4CC(C)(C)NC(C)(C)C4)nn3)c3[nH]ncc23)cn1", "MYB", "6.00 to 7.00"),
    ("c1n[nH]cc1-c1ccc(-c2ccc(N3CCCC4(CNC4)C3)nn2)c2[nH]ncc12", "MYB", "< 5.00"),
    ("CN(c1ccc(-c2cc(F)c(-c3cnn(C)c3)c3cn[nH]c23)nn1)[C@@H]1C[C@H]2CC[C@@H](C1)N2", "MYB", "> 7.00"),
    ("CN(c1ccc(-c2ccc(-c3cn[nH]c3)c3ncsc23)nn1)C1CCNCC1", "MYB", "5.00 to 6.00"),
    ("CN(c1ccc(-c2ccc(-c3cn[nH]c3)c3cn[nH]c23)nn1)C1CC(C)(C)NC(C)(C)C1", "MYB", "5.00 to 6.00"),
    ("c1cnn(-c2ccc(-c3ccc(N4CCC(NC5CC5)C4)nn3)c3scnc23)c1 (stereo not drawn)", "MYB", "< 5.00"),
    ("CCN(c1ccc(C2=CC=C(c3cn[nH]c3)C3N=CSC23)nn1)[C@@H]1C[C@H]2CC[C@@H](C1)N2 (stereo partly drawn)", "MYB", "6.00 to 7.00"),
    ("C[C@@H]1C[C@H](N(C)c2ccc(-c3ccc(-n4cccn4)c4nn[nH]c34)nn2)CCN1", "MYB", "5.00 to 6.00"),
    ("CN(c1ccc(-c2ccc(-c3cnnc(O)c3)c3scnc23)nn1)C1CC(C)(C)NC(C)(C)C1", "MYB", "< 5.00"),
    ("Fc1cc(-c2ccc(O[C@@H]3C[C@H]4CC[C@@H](C3)N4)nn2)c2[nH]ncc2c1-c1cn[nH]c1", "MYB", "6.00 to 7.00"),
    ("c1nc2c(-c3cn[nH]c3)ccc(-c3ccc(N[C@H]4C[C@H]5COC[C@@H](C4)N5)nn3)c2s1", "MYB", "5.00 to 6.00"),
    ("c1n[nH]cc1-c1ccc(-c2ccc(N3CCC4(CCNCC4)C3)nn2)c2[nH]ncc12", "MYB", "< 5.00"),
    ("Cn1cc(-c2ccc(-c3ccc(N[C@@H]4C[C@H]5CC[C@@H](C4)N5)nn3)c3[nH]ncc23)nn1", "MYB", "5.00 to 6.00"),
    ("CN1C[C@@H]2CN(c3ccc(-c4ccc(-c5cn[nH]c5)c5ncsc45)nn3)C[C@@H]2C1", "MYB", "< 5.00"),
    ("CC1(C)CC(Oc2ccc(-c3cc(F)c(-c4cn[nH]c4)c4cn[nH]c34)nn2)CC(C)(C)N1", "MYB", "6.00 to 7.00"),
    ("CC1(C)CC(Oc2ccc(-c3ccc(-c4cn[nH]c4)c4cn[nH]c34)nn2)CC(C)(C)N1", "MYB", "6.00 to 7.00"),
    ("c1n[nH]cc1-c1ccc(-c2ccc(N3CC4(CCCNC4)C3)nn2)c2[nH]ncc12", "MYB", "< 5.00"),
    ("CN1CCC2(CC1)CCN2c1ccc(-c2ccc(-c3cn[nH]c3)c3ncsc23)nn1", "MYB", "5.00 to 6.00"),
    ("CCN(c1ccc(-c2ccc(-c3cn[nH]c3)c3ncsc23)nn1)[C@@H]1C[C@H]2CCC[C@@H](C1)N2", "MYB", "6.00 to 7.00"),
    ("Cc1cc(-c2ccc(-c3ccc(O[C@@H]4C[C@H]5CC[C@@H](C4)N5)nn3)c3scnc23)ccn1", "MYB", "5.00 to 6.00"),
    ("c1n[nH]cc1-c1ccc(-c2ccc(NC3CCNCC3)nn2)c2[nH]ncc12", "MYB", "< 5.00"),
    ("Fc1cc(-c2ccc(N[C@@H]3C[C@H]4CC[C@@H](C3)N4)nn2)c2scnc2c1-c1cn[nH]c1", "MYB", "> 7.00"),
    ("c1nc2c(-c3cn[nH]c3)ccc(-c3ccc(N4CCCC5(CCNC5)C4)nn3)c2s1 (stereo not drawn)", "MYB", "< 5.00"),
    ("CCNC1CCN(c2ccc(-c3ccc(-c4cn[nH]c4)c4ncsc34)nn2)CC1", "MYB", "5.00 to 6.00"),
    ("CCc1n[nH]c2c(-c3ccc(N(C)[C@@H]4C[C@H]5CC[C@@H](C4)N5)nn3)ccc(-c3cnn(C)n3)c12", "MYB", "< 5.00"),
    ("c1n[nH]cc1-c1ccc(-c2ccc(NC3CNC3)nn2)c2[nH]ncc12", "MYB", "< 5.00"),
]
